# measurement.target: S-methyl-5'-thioadenosine phosphorylase (Homo sapiens)
# Sequence (Q13126 whole entry): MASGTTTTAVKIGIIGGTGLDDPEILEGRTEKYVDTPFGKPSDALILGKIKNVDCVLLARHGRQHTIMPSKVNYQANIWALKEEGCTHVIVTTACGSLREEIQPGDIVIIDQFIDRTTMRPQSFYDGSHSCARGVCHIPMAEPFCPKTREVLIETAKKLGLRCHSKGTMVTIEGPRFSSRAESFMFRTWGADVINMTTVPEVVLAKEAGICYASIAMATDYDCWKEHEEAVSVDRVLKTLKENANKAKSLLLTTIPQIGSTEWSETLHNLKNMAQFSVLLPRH
# experiment.notes: Inhibition of human MTAP assessed as reduction in methylthioadenosine phosphorolysis/hydrolysis
parameter: log10 of Ki (log10 of the value in nM)
// units: nM (pre-log); metric: Ki; scale: log10

Record excerpt, results attached:
>  <compound>
CSC[C@H](O)[C@@H](O)CN(C)Cc1c[nH]c2c(N)ncnc12 (racemic)

>  <log10 of Ki>
2.57

$$$$
>  <compound>
CSC[C@H](CO)NCc1c[nH]c2c(N)ncnc12

>  <log10 of Ki>
1.53

$$$$
>  <compound>
CSC[C@H](O)[C@@H](CO)NCc1c[nH]c2c(N)ncnc12

>  <log10 of Ki>
1.94

$$$$
>  <compound>
CSCC(CO)CNCc1c[nH]c2c(N)ncnc12 (racemic)

>  <log10 of Ki>
1.00

$$$$
>  <compound>
CSC[C@H](O)[C@@H](CO)CN(C)Cc1c[nH]c2c(N)ncnc12 (racemic)

>  <log10 of Ki>
2.02

$$$$
>  <compound>
CSC[C@@H](O)CNCc1c[nH]c2c(N)ncnc12

>  <log10 of Ki>
2.78

$$$$
>  <compound>
CSC[C@@H](O)[C@@H](CO)NCc1c[nH]c2c(N)ncnc12

>  <log10 of Ki>
0.72

$$$$
>  <compound>
CSC[C@@H](O)[C@H](CO)NCc1c[nH]c2c(N)ncnc12

>  <log10 of Ki>
1.53

$$$$
>  <compound>
CSC[C@@H](CNCc1c[nH]c2c(N)ncnc12)[C@@H](O)CO (racemic)

>  <log10 of Ki>
1.53

$$$$

Kindly consider the entry below.
**Q:** # query: log10 of Ki of entry CSC[C@@H](CN(C)Cc1c[nH]c2c(N)ncnc12)[C@@H](O)CO (racemic)
**A:** 1.08

====

# experiment.notes: Inhibition of Neisseria meningitidis MTAN assessed as reduction in methylthioadenosine phosphorolysis/hydrolysi
Please respond with 1 when measured Ki is strictly beneath 5 nM, and with -1 in all other cases.

>  <compound>
CSCC(CO)(CO)NCc1c[nH]c2c(N)ncnc12

>  <label.class>
1

$$$$
>  <compound>
CSC[C@H](O)[C@@H](CO)CN(C)Cc1c[nH]c2c(N)ncnc12 (racemic)

>  <label.class>
-1

$$$$

**Q:** Does CSCC(CO)NCc1c[nH]c2c(N)ncnc12 (racemic) have Ki strictly under 5 nM?
**A:** 1

**Q:** For CSC[C@H](O)[C@@H](O)CN(C)Cc1c[nH]c2c(N)ncnc12 (racemic) then?
**A:** -1

**Q:** Also CSC[C@H](CO)N[C@H](CO)c1c[nH]c2c(N)ncnc12 ?
**A:** -1

**Q:** Field entry: CSC[C@@H](O)CNCc1c[nH]c2c(N)ncnc12
**A:** -1

**Q:** Also need CSC[C@H]1N[C@@H](c2c[nH]c3c(N)ncnc23)[C@H](O)[C@@H]1O , thanks.
**A:** 1

**Q:** Input CSC[C@H]1CN(Cc2c[nH]c3c(N)ncnc23)C[C@@H]1O
**A:** 1

**Q:** Try CSCC(CO)CNCc1c[nH]c2c(N)ncnc12 (racemic) next.
**A:** 1

**Q:** Now try CSC[C@@H](CN(C)Cc1c[nH]c2c(N)ncnc12)[C@@H](O)CO (racemic) .
**A:** -1
